Target: Collagenase 3 (Homo sapiens)
readout_label: IC50 (nM)
Enter your answer as a number in nM; do not include the unit.

>>> numeric_result("CC(C)[C@H](C(=O)NO)N(Cc1cccnc1)S(=O)(=O)c1ccc([N+](=O)[O-])cc1")
10

Need IC50, item COc1ccc(S(=O)(=O)N(Cc2cccnc2Br)[C@@H](C(=O)NO)C(C)C)cc1 59
